biological target: cynomolgus monkey Trop-2-hFc; test: Biacore SPR affinity of chimeric and humanized 7E6 Fab, cynomolgus Trop-2; format: binding; details: recombinant Fab fragments injected over captured cynomolgus monkey Trop-2-hFc
assayMetric: kd (s⁻¹)
Numeric only. Scale: s⁻¹

Req: Recorded kd for h7E6_SVGL: humanized anti-Trop-2 antibody, VL SEQ ID NO: 6, VH SEQ ID NO: 5 (antibody, V domains shown) VH: QVQLQESGPGLVKPSETLSLTCTVSGGSISSYGVHWIRQPPGKGLEWIGVIWTSGVTDYNSALMGRVTISVDTSKNQFSLKLSSVTAADTAVYYCARDGDYDRYTMDYWGQGTLVTVSS VL: DIVMTQSPDSLAVSLGERATINCRASKSVSTSLYSYMHWYQQKPGQPPKLLIYLASNLESGVPDRFSGSGSGTDFTLTISSLQAEDVAVYYCQHSRELPYTFGQGTKLEIK , please?
Resp: 7.42e-05

Req: Recorded kd for h7E6: humanized anti-Trop-2 antibody, VL SEQ ID NO: 3, VH SEQ ID NO: 4 (antibody, V domains shown) VH: QVQLQESGPGLVKPSETLSLTCTVSGGSISSYGVHWIRQPPGKGLEWIGVIWTGGSTDYNSALMSRVTISVDTSKNQFSLKLSSVTAADTAVYYCARDGDYDRYTMDYWGQGTLVTVSS VL: DIVMTQSPDSLAVSLGERATINCRASKSVSTSGYSYMHWYQQKPGQPPKLLIYLASNLESGVPDRFSGSGSGTDFTLTISSLQAEDVAVYYCQHSRELPYTFGQGTKLEIK , please?
Resp: 0.00635

Req: Recorded kd for h7E6_SVG: humanized anti-Trop-2 antibody, VL SEQ ID NO: 3, VH SEQ ID NO: 5 (antibody, V domains shown) VH: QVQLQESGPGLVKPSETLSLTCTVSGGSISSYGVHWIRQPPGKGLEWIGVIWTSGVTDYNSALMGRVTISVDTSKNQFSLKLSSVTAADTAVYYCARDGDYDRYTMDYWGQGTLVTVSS VL: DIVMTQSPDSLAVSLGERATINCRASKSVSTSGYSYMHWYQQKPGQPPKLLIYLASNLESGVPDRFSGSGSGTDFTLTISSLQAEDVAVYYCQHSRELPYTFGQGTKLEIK , please?
Resp: 0.00189

Req: Recorded kd for h7E6_L: humanized anti-Trop-2 antibody comprising SEQ ID NOs: 4 and 6 (antibody, V domains shown) VH: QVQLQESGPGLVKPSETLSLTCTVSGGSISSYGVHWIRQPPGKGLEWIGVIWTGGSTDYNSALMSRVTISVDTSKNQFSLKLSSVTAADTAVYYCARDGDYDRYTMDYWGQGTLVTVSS VL: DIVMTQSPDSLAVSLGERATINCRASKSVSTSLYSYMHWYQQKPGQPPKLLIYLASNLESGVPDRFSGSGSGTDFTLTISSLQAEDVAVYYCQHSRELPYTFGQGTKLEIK , please?
Resp: 0.000335

Reference source: patent US10100114B2
